Listed next: entries and their corresponding Av. Resp..
TARGET: humanized development candidate monoclonal antibody IgG4 (hIgG4)
EXPERIMENTAL_DETAILS: Gyrolab, mAb as capture, hIgG4 1.6 ng/ml
API doc: respond with a numeric literal and nothing else, no unit.

* rabbit anti-human IgG monoclonal antibody clone 16F5 (antibody, V domains shown) VH: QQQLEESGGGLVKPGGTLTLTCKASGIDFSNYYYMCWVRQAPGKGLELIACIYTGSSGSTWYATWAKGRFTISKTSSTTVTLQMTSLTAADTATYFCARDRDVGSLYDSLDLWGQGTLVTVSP VL: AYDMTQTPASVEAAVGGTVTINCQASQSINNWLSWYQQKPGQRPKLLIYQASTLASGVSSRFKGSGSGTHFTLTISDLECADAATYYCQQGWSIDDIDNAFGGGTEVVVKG | 7
* rabbit anti-human IgG monoclonal antibody clone 19B1 (antibody, V domains shown) VH: QEQLVESGGGLVQPEGSLTLTCTASGFSFSDSYYMCWVRQAPGKGLEWIACIYGGTITNTYYASWAKGRFTISKTSSTTVTLQMTSLTAADTATYFCARDLGAAGDAYNLWGPGTLVTVSS VL: ASDMTQTPASVSEPVGGTVTIKCQASENIYSSLAWYQQKPGQPPKLLIYDASNLASGVPSRFSGSGSGTEFTLTISDLECADAATYYCQCTYRSSSSSYAFGGGTEVVVKG | 2.7

[ask] // returns reported Av. Resp. for input rabbit anti-human IgG monoclonal antibody clone 9E6 (antibody, V domains shown) VH: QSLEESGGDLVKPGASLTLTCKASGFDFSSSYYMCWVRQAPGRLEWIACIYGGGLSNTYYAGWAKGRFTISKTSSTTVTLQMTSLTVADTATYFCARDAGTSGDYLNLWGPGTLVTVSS VL: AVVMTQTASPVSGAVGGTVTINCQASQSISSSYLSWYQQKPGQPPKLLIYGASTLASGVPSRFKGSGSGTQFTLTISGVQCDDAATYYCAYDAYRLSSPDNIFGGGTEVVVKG
[reply] 4.1
